- test details: chemical genetic growth profiling, strain panel (AID 1159580);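 note: tested at 20 µM; growth read once vehicle control cultures reached saturation at 30 °C; 1 = growth at the plate median or of vehicle wells; lower values mean less growth of the strain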
- test settings: S. cerevisiae deletion strains, growth OD, locus YLR371W, strain rom2, active compounds read low
About 2,000 (36%) of roughly 5,500 compounds were called active. Inconclusive results (about 18%) are left out. The list shows a part of the results.
Recorded measurements of normalized growth, one per entry
property name: normalized growth

# compound, result
data = [
    ("CC1(C)CC[C@]2(C)CC[C@]3(C)C(=CCC4[C@@]5(C)CC[C@H](O)C(C)(C)C5CC[C@]43C)C2C1 (stereo not given in full)", 0.973),
    ("CC(=O)O[C@H]1CC[C@@]2(C)C(CC[C@]3(C)C2CC=C2C4CC(C)(C)CC[C@]4(C)CC[C@]23C)C1(C)C (stereo not given in full)", 1.02),
    ("NNC(=O)c1ccncc1", 0.988),
    ("CCOP(=S)(OCC)Oc1nc(Cl)c(Cl)cc1Cl", 0.999),
    ("CCC(C)C(=O)O[C@H]1[C@H](O)C2C(CN3CC(C)CCC3[C@@]2(C)O)C2C[C@]34O[C@]5(O)C(OC(=O)C(C)(O)CC)CC[C@@]3(C)C5C(OC(C)=O)[C@@H](OC(C)=O)C4[C@@]21O (stereo not given in full)", 0.984),
    ("CC(=O)O[C@@H]1CC[C@@]2(C)C(CC[C@]3(C)C2CC=C2C4CC(C)(C)CC[C@]4(C(=O)O)CC[C@]23C)C1(C)C (stereo not given in full)", 0.991),
    ("CC(=O)OC1CC(OC(C)=O)C2(C)C(CC(OC(C)=O)C3(C)C4=CC(=O)OC(=O)C4(C)CCC32)C1(C)C (stereo not given)", 0.987),
    ("Cc1ccc(S(=O)(=O)NC(=O)NN2CC3CCCC3C2)cc1 (stereo not given)", 1.01),
    ("COc1cc(C(=O)O[C@H]2CC[C@@]3(C)[C@@H]4CC[C@H]5[C@]6(O)C[C@H](O)[C@@]7(O)[C@@H](CN8C[C@@H](C)CC[C@H]8[C@@]7(C)O)[C@]6(O)C[C@@]53O[C@]24O)cc(OC)c1OC", 0.991),
    ("C/C=C(/C)C(=O)OC1CCC2(C)C3CCC4C5(O)CC(O)C6(O)C(CN7CC(C)CCC7C6(C)O)C5(O)CC42OC13O (stereo not given)", 0.985),
    ("CC(C)(Oc1ccc(CCNC(=O)c2ccc(Cl)cc2)cc1)C(=O)O", 1.02),
    ("C/C=C(/C)C(=O)O[C@H]1CC[C@@]2(C)[C@@H]3CC[C@H]4[C@]5(O)C[C@H](O)[C@@]6(O)[C@@H](CN7C[C@@H](C)CC[C@H]7[C@@]6(C)O)[C@]5(O)C[C@@]42O[C@]13O", 0.982),
    ("CC(=O)O[C@H]1CC[C@@]2(C)C(CC[C@]3(C)C2C(=O)C=C2C4[C@@H](C)[C@H](C)CC[C@]4(C(=O)O)CC[C@]23C)C1(C)C (stereo not given in full)", 0.984),
    ("CNCc1ccccc1", 0.999),
    ("CC1(C)CC[C@]2(C(=O)O)CC[C@]3(C)C(=CCC4[C@@]5(C)CC[C@H](O)[C@@](C)(CO)C5CC[C@]43C)C2C1 (stereo not given in full)", 0.958),
]
